test: qHTS assay to identify small molecule agonists of the hypoxia (HIF-1) signaling pathway (AID 1224846); further: on the % scale 0 is the no-effect control and ±100 the full control effect
condition summary: HRE-bla ME-180 cells, beta-lactamase ratio, 17 h; series mostly up to 76.8 µM
Records with an inconclusive call do not appear. Calls of active or inactive are those of the source. The call rests on the fitted dose curve; in most records, active means well fitted activation curve with a large enough effect in the signal ratio in the repeat runs (not every such curve was filed as active); inconclusive means weak or mixed curves; inactive means flat fitted curve, though single readings scatter; the % refers to the signal ratio.
measurement label: activation

Sample records with activation:
CCN1CN(CC)CN(CC)C1: inactive
CCCCOC(=O)C(=O)OCCCC: inactive
CC(C)=CC(C)(C)C: inactive
O=C1c2ccccc2-c2ccccc21: inactive

Request: State its activation for this molecule: Cc1cccc(NC(=S)N(C)C)c1
Result: inactive

Request: State its activation for this molecule: CC(C)COC(=O)CCCCC(=O)OCC(C)C
Result: inactive

Request: State its activation for this molecule: C=C(C)C(=O)OCCCCCCOC(=O)C(=C)C
Result: inactive

Request: State its activation for this molecule: Nc1ccc(C(=O)OCC(O)CO)cc1 (configuration not stated)
Result: inactive

Request: State its activation for this molecule: C=CCCCCCCCCCCC
Result: -0.397% [at 7.01 µM] (inactive)

Request: State its activation for this molecule: O=C(O)Cc1cccc(-c2cc(CCCCCCc3ccc(O[C@H]4O[C@H](CO)[C@@H](O)[C@H](O)[C@@H]4O)c(-c4cccc(CC(=O)O)c4)c3)ccc2O[C@H]2O[C@H](CO)[C@@H](O)[C@H](O)[C@@H]2O)c1
Result: -0.541% [at 0.291 µM] (inactive)

Request: State its activation for this molecule: CN[C@@H]1[C@H](O)[C@H](NC)[C@H]2O[C@@]3(O)C(=O)C[C@@H](C)O[C@H]3O[C@@H]2[C@H]1O
Result: inactive

Request: State its activation for this molecule: CCCCCCCCCOCC1CO1 (configuration not stated)
Result: inactive

Data provenance is PubChem BioAssay (Tox21).
